Origin of measurements: the domain aggregation screens of Martell et al. (2025)

Experiment: soluble fraction after stress (log2 fold change); higher = more stays soluble; pooled small domains, quantitative proteomics
Conditions: stress: 50 degC
Record True whenever soluble fraction (log2) is at -0.2 or higher; record False when lower.

Could you verify whether the entry `HMSQESIMPNLVGSTEDEAKAIAVEYGFQLNVISRVNNSQYPAGVIIDQNVDEGVRIKAGYPVGVTIS` shows soluble fraction (log2) of no less than -0.2?
False

I'd appreciate it if you could say whether `HMENKIIKNAAHATLKVKKDAGIEITTELIREAVILFHRIYSPNDNPNINWERIINELESHYT` has soluble fraction (log2) at least equal to -0.2.
False

Quick check: does `HMEFGEVLAQLRQKRHISQAELGRAIFVSGGTISNYEKGVHFPDVEKLLLLADYFNVTTDYLLGRT` have soluble fraction (log2) greater than or equal to -0.2?
False

Is reported soluble fraction (log2) greater than or equal to -0.2 here: `HMGVYDLIYLGYGINVEKEELVDQNISIIRRYANIFDPNGDIKGSTNPTYASNTAVLFNEAKFIIDGYD`
False

Evaluate `HMYFDDEELDTYKGRASNAYSPDETAQFEEVMTTMRPDEVAAWLRSLQLRGINLPDELKDEAIMLVE` : soluble fraction (log2) at minimum -0.2?
True

Is it the case that `HMNKRKQRINDLMDLIREQPALSIKNLAEMLNVSEMTIRRDMAYLKSNNLLNRAHGMNFLNS` has soluble fraction (log2) reaching or exceeding -0.2?
True

Could you tell me if the measured soluble fraction (log2) of `HMSSEASALRGWLQTSQYQGSVTLFANALNVPLKTVEDWVYGRSKPSLQHWSQLYEATGLPEYQQ` reaches -0.2 or more?
True

Has `HMGKELSTVVVPDLTGLSVLEARNVLTKVGLQLTPSGAGIAFKQIPTPGTRLTLGATVTVYFVATGY` a recorded soluble fraction (log2) greater than or equal to -0.2?
True

Please check the record `HMPLYKYYTSYQIEPGDTLTSIAQKYTINSDVSVQDYIDEVKKNNNLVSDKINSGSYLVVSYYSNEY` and state if its soluble fraction (log2) is at or above -0.2.
False

State whether the measured soluble fraction (log2) reaches -0.2, counting equality as reaching it, for `HMHYELTPDAEKQLSALGLTAELVERILEEANDRRPIPGTNRTVYSLHGYSVEFSNTNHKIVSVRKG`
False

====

Assay: soluble fraction after stress (log2 fold change); higher = more stays soluble; pooled small domains, quantitative proteomics
Details: stress: 50 degC
propertyName: soluble fraction (log2)
Write the value as a bare number.

Solved cases below.
HMKIQTYEDFRNAYPDIQGSLFGSAERYKTDLDWGDVAAKYDADEELKNVRNIFQLVRRYEQKYS    0.332
HMIHANGLTDRQEMILEFIRSYISENNYPPSVREIGKGVGLASSASVHNNMKKLASLGFLNWDTD    -1.25
HMASALDVALNDFAEMRKKMRKPLTDRALALTLSELEKLAPGNDEKKIAILNQSIQRGWQGVFPLK    -0.162
HMTIKNHIDEILKKEPFILENIKNGLINISALARQIEPQLSRKVGKKLNVNAIIMTIKRMEIDQLNK    -0.989
HMGPIITKTYNLSYATARDVNDIIKSKKSARGDIVIDTRTNSLIVSDVQEKIDLIDEIVATL    -0.27
HMVEDIVLTDAQIEFVKQQAKNGLSAFQISEMIWPEMSVKRFSKQHVAVLDFLREYEPAYVHDSE    0.00709

Specify measured soluble fraction (log2) for `HMTETNSVTINERLTLYRRSRSGRWQARVKLNTGEWHRFSTGTADFEKAKESAHRELHNVGFRAENNLPQ` .
-0.598

For `HMGKSDDSLAAEKFIQHVRKNGELSYEQAYRMVHAYFPDFRNFEGMVSGAVKSGYLILIQKSTGLFLRAKE` , write its soluble fraction (log2).
-0.882
